// data source = ChEMBL document CHEMBL1201862

# Tested on: Hs-578T
# assay notes: NCI tumour cell line growth inhibition, 48 h
Activity calls are given as the source filed them. Rule as the data show it: active = GI50 up to about 1.1 µM and inactive = higher.
GI50 overview

C[C@]12CCC3C4=C(CCC3C1CCC2=O)C(=O)[C@H]1O[C@H]1C4=O (stereo partly drawn)	9.51 µM (inactive)

Continue with the molecule presented below.
Input line: # get_value(readout='GI50', item= `O=c1cc(-c2ccccc2)oc2c1ccc1nc3ccccc3c(O)c12` )
Output line: 59.4 µM (inactive)

###

The entries below are paired with their reported GI50.
# Test system: MDA-MB-435
# assay notes: NCI tumour cell line growth inhibition, 48 h
Activity calls are given as the source filed them. No stated cut-off is given here; in the data, active = GI50 up to about 1.1 µM and inactive = higher.

O=C1c2ccccc2C(=O)c2c(NCC3CO3)ccc(NCC3CO3)c21 (stereo unspecified)	1.22 µM (inactive)
COc1ccc(C(=O)O[C@@H]2CCN3CC[C@H](C)[C@H]23)cc1	> 100 µM (inactive)
O=NC1c2cccc3cccc(c23)C1N=O (stereo unspecified)	4.78 µM (inactive)
C/C(=N\N)C(CN(C)C)C(c1ccccc1)c1c(O)c2ccccc2oc1=O (stereo unspecified)	> 100 µM (inactive)
O=C(/C=C/c1ccccc1)CCN1CCN(CCC(=O)/C=C/c2ccccc2)CC1	3.72 µM (inactive)

Input line: Write down the reported GI50 of NC(Cc1ccc(N(CCCl)CCCl)cc1)C(=O)NC(CCC(=O)O)C(=O)O (stereo unspecified) , test system: MDA-MB-435.
Output line: > 100 µM (inactive)

Input line: Would you kindly repeat that for C[C@]12CCC3C4=C(CCC3C1CCC2=O)C(=O)[C@H]1O[C@H]1C4=O (stereo partly specified) ?
Output line: 11.8 µM (inactive)

Input line: What do you get for `O=[N+]([O-])c1ccc(/C=N/n2c(CO)nc3ccccc32)o1` ?
Output line: 3.4 µM (inactive)

Input line: Request: `COc1ccc(N(CC(=O)O)N=O)cc1`
Output line: > 100 µM (inactive)

Input line: Request: `CCCCC(=O)Nc1ccc2cc(C(=O)OC)c(Cl)nc2n1`
Output line: > 100 µM (inactive)

Input line: Same for `O=C(O)CCNCC(=O)O`
Output line: > 100 µM (inactive)
